test system: TO-3-N3 (biotin conjugate); assay: pull-down binding Z-score (relative to library population); higher = stronger binding; conditions: RNA library: Library-2
Binary classification by pull-down binding Z-score, with -0.1 as an inclusive lower bound for condition met; all other cases are condition not met.

Study these solved cases before continuing.
{"Sequence text": "GGGGGCAGGCAGGGGAUUGGCUAAGAACCUGACUCUUGC [hsa-mir-7703]", "Assigned label": "condition met"}
{"Sequence text": "GCCCCAUUCCUUGAUCGGCUUCGCCGAGAUCAGAAAUCCCUAAGAGGAAGGGGC [IAV_invivo_NS1_NEP_8_Motif_3+IAV_invivo_NS1_NEP_8_Motif_3]", "Assigned label": "condition not met"}
{"Sequence text": "GCAGACUUCAAAGUUUGC", "Assigned label": "condition met"}
{"Sequence text": "UAAUCACAGGCCACAUUUCUGAAUA [hsa-mir-1295b]", "Assigned label": "condition not met"}
{"Sequence text": "GAGAAACUUGAGGUCUCUGGGAGUUGCUUAAACCAGUUGACCGUAACCUGGCCAGAGAAUUCUGAUAGUGUC [hsa-mir-6740]", "Assigned label": "condition not met"}

Exercise: For this sequence, is measured pull-down binding Z-score -0.1 or higher? AACGGGGCGGGCCUCGGGCGGGGUAA [G4_2A2_VEGF-Pu22-mt3]
Key: condition met

Exercise: For this sequence, is measured pull-down binding Z-score -0.1 or higher? CUAAAUGGUACCCACUUUAUUUAG [hsa-mir-5687]
Key: condition not met

Exercise: For this sequence, is measured pull-down binding Z-score -0.1 or higher? UGUUUUCUACAAAGAAAACA [SHAPE_invivo_SARS-CoV-2_Motif_122]
Key: condition not met

Exercise: For this sequence, is measured pull-down binding Z-score -0.1 or higher? AGGUUGGCUGGGCCAGGCCUGACCU [hsa-mir-4722]
Key: condition met

Exercise: For this sequence, is measured pull-down binding Z-score -0.1 or higher? GCCAGAUGCUGAGCGAUGGC [hsa-mir-4730]
Key: condition not met
